Target: Atrial natriuretic peptide receptor 2 (Homo sapiens)
Assay: Natriuretic polypeptide receptor (hNpr2) antagonism - Pilot subtype selectivity assay (AID 1347050)
Settings: NPR2-expressing cells, cGMP antagonist-mode read-out; series mostly up to 38.3 µM
Results filed as inconclusive are left out. The source made the active and inactive calls. Calls follow the shape of the full dose curve.
Outcome field: choose from TRUE (active), FALSE (inactive)

Please let me know the test result on file for `COc1nc(C)nc(Cl)c1NC1=NCCN1` .
FALSE

Then `Cc1cnc(C(=O)NCCc2ccc(S(=O)(=O)NC(=O)NC3CCCCC3)cc2)cn1` ?
FALSE

Same for `C[C@](N)(Cc1ccc(O)c(O)c1)C(=O)O`
FALSE

Likewise for `O=C(CCCN1CCC(O)(c2ccc(Cl)cc2)CC1)c1ccc(F)cc1` ?
FALSE

Query COc1ccccc1OCC(O)CN1CCN(CC(=O)Nc2c(C)cccc2C)CC1 (stereo not given) next
FALSE

Next: `Clc1ccccc1C(c1ccccc1)(c1ccccc1)n1ccnc1`
FALSE

// repeat for CC(C)(Oc1ccc(C2CC2(Cl)Cl)cc1)C(=O)O (stereo not given) and report
FALSE

Param item: `COc1ccc2[nH]cc(CCNC(C)=O)c2c1`
FALSE

Okay, and `CN(C)CCC=C1c2ccccc2C=Cc2ccccc21` ?
TRUE

One more compound: COc1cc2nc(N(C)CCCNC(=O)C3CCCO3)nc(N)c2cc1OC (stereo not given)
FALSE

And `CS(=O)(=O)Nc1ccc([N+](=O)[O-])cc1Oc1ccccc1` ?
FALSE

Likewise for CC1COc2c(N3CCN(C)CC3)c(F)cc3c(=O)c(C(=O)O)cn1c23 (stereo not given) ?
FALSE

Next: CC(C)NCC(O)c1ccc(O)c(O)c1 (stereo not given)
FALSE

How about `CCCCc1oc2ccccc2c1C(=O)c1cc(I)c(OCCN(CC)CC)c(I)c1` ?
FALSE

Do the same for `CN(Cc1cnc2nc(N)nc(N)c2n1)c1ccc(C(=O)N[C@@H](CCC(=O)O)C(=O)O)cc1` please
FALSE

Would you kindly repeat that for `Cc1cc(C(C)(C)C)c(O)c(C)c1CC1=NCCN1` ?
FALSE

Next: `NS(=O)(=O)c1cc2c(cc1Cl)NCNS2(=O)=O`
FALSE

What about `CN(C)c1nc(N(C)C)nc(N(C)C)n1` ?
FALSE

Next up: `CN1CCC(=C2c3ccccc3C=Cc3ccccc32)CC1`
TRUE

Now give it for `O=C(Nc1ccc([N+](=O)[O-])cc1Cl)c1cc(Cl)ccc1O` too.
TRUE

Same read-out for `CN(C)CCCN1c2ccccc2CCc2ccc(Cl)cc21` ?
TRUE

Now consider `CC12CC3CC(C)(C1)CC(N)(C3)C2` and answer again.
FALSE

Let us now turn to `O=c1c(O)c(-c2ccc(O)c(O)c2)oc2cc(O)cc(O)c12`
FALSE

Could you do the same for `O=c1[nH]cc(F)c(=O)[nH]1` , please?
FALSE

Follow-up entry: `Nc1ccn([C@H]2CC[C@@H](CO)O2)c(=O)n1`
FALSE

----------
Assay: Quantitative High-Throughput drug screen in 47 multiple myeloma cell lines against the NCATS MIPE library collection: KMM1_JCRB cell viability assay (AID 1918960); also: nearly all actives have a fitted effect of over 30% in size; also: potency is read from the fitted curve at half-maximal effect
Details: KMM1 myeloma viability, CellTiter-Glo ATP luminescence, 48 h; series mostly up to 45.8 µM
Inconclusive results are not listed. Active and inactive are the calls of the source. Calls come from the whole dose curve; as a rule, active = well fitted cell-killing curve with a large enough effect; inconclusive = small, poorly fitted or top-dose-only effect, or effect the other way; inactive = no such curve, though single readings can be large or run the other way.
METRIC NAME: Potency

Worked cases, answers included:
// query Potency value for entry `O=C(Nc1ccc([N+](=O)[O-])cc1Cl)c1cc(Cl)ccc1O`
0.235 µM (active)

# repeat for `CNCCCC12CCC(c3ccccc31)c1ccccc12`
20.9 µM (active)

What would you report for `Clc1ccc2nsnc2c1NC1=NCCN1` ?
inactive

Next: `NCCCCCC(=O)O`
inactive

Follow-up item: `Cc1cc(C(C)(C)C)c(O)c(C)c1CC1=NCCN1`
inactive

Next:
// returns reported Potency for input `NCCS(=O)(=O)O`
inactive

Item: CC1(CN2CCC(n3c(=O)[nH]c4ccccc43)CC2)OCc2ccccc2-n2cccc21 (configuration not stated)
inactive

// next record `O=C(c1ccc(OCCN2CCCCC2)cc1)c1c(-c2ccc(O)cc2)sc2cc(O)ccc12`
20.9 µM (active)

----------
Assay: Quantitative High-Throughput drug screen in 47 multiple myeloma cell lines against the NCATS MIPE library collection: Karpas25_ECACC cell viability assay (AID 1918968; also: nearly all actives have a fitted effect of over 35% in size)
Conditions: Karpas25 myeloma viability, CellTiter-Glo ATP, 48 h; series mostly up to 45.8 µM
Results filed as inconclusive are left out. The source made the active and inactive calls. Calls follow the shape of the dose curve; as a rule, active = well fitted cell-killing curve with a large enough effect; inconclusive = small, poorly fitted or top-dose-only effect, or effect the other way; inactive = no such curve, though single readings can be large or run the other way.
# output must be one of active, inactive

For `CS(=O)(=O)CCNCc1ccc(-c2ccc3ncnc(Nc4ccc(OCc5cccc(F)c5)c(Cl)c4)c3c2)o1` , which call appears in the assay record?
active

Continue with `CC(C)C(=O)Nc1ccc([N+](=O)[O-])c(C(F)(F)F)c1`
active

Further, for `Nc1c2c(nc3ccccc13)CCCC2` ?
inactive

And what about the compound `COc1nc(C)nc(Cl)c1NC1=NCCN1` ?
active

Next compound: `C[C@@H]1CC(=O)NN=C1c1ccc(NN=C(C#N)C#N)cc1`
active

Would you mind doing `CN(Cc1cnc2nc(N)nc(N)c2n1)c1ccc(C(=O)N[C@@H](CCC(=O)O)C(=O)O)cc1` as well?
active

Next compound: `Fc1ccc([C@@H]2CCNC[C@H]2COc2ccc3c(c2)OCO3)cc1`
inactive

What do we get for `COc1cc2nc(N3CCN(C(=O)c4ccco4)CC3)nc(N)c2cc1OC` ?
active

Please give the result for `CCOC(=O)c1ncn2c1CN(C)C(=O)c1cc(F)ccc1-2` too.
inactive

Same again, this time with `CCOC(=O)Nc1ccc(NCc2ccc(F)cc2)nc1N`
inactive

Further, for CC(C(=O)O)c1cccc(C(=O)c2ccccc2)c1 (stereo unspecified) ?
active

----------
Test: qHTS of pediatric cancer cell lines to identify multiple opportunities for drug repurposing: Confirmatory screen for SJ-GBM2 cells (AID 1347116);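 also: 48 hour compound exposure; nearly all actives have a fitted effect of over 60% in size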
Conditions: SJ-GBM2 glioblastoma cells, viability; series mostly up to 45.9 µM
Inconclusive results are not listed. Calls of active or inactive are those of the source. The call rests on the fitted dose curve; in most records, active means well fitted cell-killing curve with a large enough effect; inconclusive means small, poorly fitted or top-dose-only effect, or effect the other way; inactive means no such curve, though single readings can be large or run the other way.
Hi there, use one of these labels in your reply, thanks! active, inactive

What is the recorded call for this compound in the test? `NC12CC3CC(CC(C3)C1)C2`
inactive

Okay, and CC(C)Cc1ccc(C(C)C(=O)O)cc1 (centres undefined) ?
active

Next: `CC#C[C@]1(O)CC[C@H]2[C@@H]3CCC4=CC(=O)CCC4=C3[C@@H](c3ccc(N(C)C)cc3)C[C@@]21C`
inactive

Repeat with `O=C(Nc1ccc([N+](=O)[O-])cc1Cl)c1cc(Cl)ccc1O`
active

Param item: `CC[C@@]1(O)C(=O)OCc2c1cc1n(c2=O)Cc2cc3c(CN(C)C)c(O)ccc3nc2-1`
active

# iterate: Clc1ccc(C(c2ccccc2Cl)C(Cl)Cl)cc1 (centres undefined)
inactive

Now the compound `CCCCc1oc2ccccc2c1C(=O)c1cc(I)c(OCCN(CC)CC)c(I)c1`
active

Now try `Clc1ccc2nsnc2c1NC1=NCCN1` .
inactive

Same question for `O=C1c2c(O)ccc(O)c2C(=O)c2c(NCCNCCO)ccc(NCCNCCO)c21` please.
active

----------
Experiment: NS1 protein of Zika virus - qHTS assay to identify small molecule inhibitors in human HEK 293 cells (AID 1347053); also: nearly all actives have a fitted effect of over 55% in size
Conditions: HEK293 ZIKV MR766 infection, NS1 TR-FRET, 24 h; series mostly up to 46.1 µM
Results filed as inconclusive are left out. The source made the active and inactive calls. The call rests on the fitted dose curve; in most records, active means well fitted inhibition curve with a large enough effect; inconclusive means small, poorly fitted or top-dose-only effect; inactive means no such curve, though single readings can be large or run the other way.
The reply should name one outcome from label 1 for active, label 0 for inactive

Outcome? CCC1(C)CC(=O)NC1=O (stereo unspecified)
label 0

Record: O=C(C1CCCCC1)N1CC(=O)N2CCc3ccccc3C2C1 (stereo unspecified)
label 0

Next molecule: `CS(=O)(=O)CCNCc1ccc(-c2ccc3ncnc(Nc4ccc(OCc5cccc(F)c5)c(Cl)c4)c3c2)o1`
label 0

Next record, please: CC1COc2c(N3CCN(C)CC3)c(F)cc3c(=O)c(C(=O)O)cn1c23 (stereo unspecified)
label 0

// query: `O=C1N(c2ccccc2)c2ccccc2C1(Cc1ccncc1)Cc1ccncc1`
label 0

Continue with `Cc1cnc(C(=O)NCCc2ccc(S(=O)(=O)NC(=O)NC3CCCCC3)cc2)cn1`
label 0

Next molecule: `Cc1cn([C@H]2C=C[C@@H](CO)O2)c(=O)[nH]c1=O`
label 0

Queued: `CN1CCC(=C2c3ccccc3C=Cc3ccccc32)CC1`
label 0

Continue with `NC12CC3CC(CC(C3)C1)C2`
label 0

Another molecule: `O=C(CCCN1CCC(O)(c2ccc(Cl)cc2)CC1)c1ccc(F)cc1`
label 0

Another molecule: COc1cc2nc(N3CCN(C(=O)C4COc5ccccc5O4)CC3)nc(N)c2cc1OC (stereo unspecified)
label 0

Field entry: `CN(C)c1nc(N(C)C)nc(N(C)C)n1`
label 0

Moving on to COc1ccc(C2CNC(=O)C2)cc1OC1CCCC1 (stereo unspecified)
label 0

Record: CC(C)(Oc1ccc(C2CC2(Cl)Cl)cc1)C(=O)O (stereo unspecified)
label 0

Next molecule up: CC(C)NCC(O)c1ccc(O)c(O)c1 (stereo unspecified)
label 0

Consider next the molecule `CN(C)C(=O)C(CCN1CCC(O)(c2ccc(Cl)cc2)CC1)(c1ccccc1)c1ccccc1` in the same way.
label 0

Try the molecule CC(C(=O)O)c1cccc(C(=O)c2ccccc2)c1 (stereo unspecified)
label 0

And then `CN1C(C(=O)Nc2ccccn2)=C(O)c2ccccc2S1(=O)=O` , what is it?
label 0

How about this molecule: `CN1CCC(=C2c3ccccc3CC(=O)c3sccc32)CC1`
label 0

Try the molecule `CNCCCC12CCC(c3ccccc31)c1ccccc12`
label 1

What about `O=c1[nH]cc(F)c(=O)[nH]1` ?
label 0

Consider next the molecule `Clc1ccc2nsnc2c1NC1=NCCN1` in the same way.
label 0

What do you get for `O=C1Cc2cc(CCN3CCN(c4nsc5ccccc45)CC3)c(Cl)cc2N1` ?
label 0

Could you do the same for `Cn1c(=O)c2c(ncn2C)n(C)c1=O` , please?
label 0

Lookup `CCOC(=O)Nc1ccc(NCc2ccc(F)cc2)nc1N`
label 0

Check `NS(=O)(=O)c1cc2c(cc1Cl)NCNS2(=O)=O` too.
label 0
